Where do these numbers come from? They come from ChEMBL document CHEMBL1135234.

Target: Gonadotropin-releasing hormone receptor (Homo sapiens)
Sequence (P30968 whole entry): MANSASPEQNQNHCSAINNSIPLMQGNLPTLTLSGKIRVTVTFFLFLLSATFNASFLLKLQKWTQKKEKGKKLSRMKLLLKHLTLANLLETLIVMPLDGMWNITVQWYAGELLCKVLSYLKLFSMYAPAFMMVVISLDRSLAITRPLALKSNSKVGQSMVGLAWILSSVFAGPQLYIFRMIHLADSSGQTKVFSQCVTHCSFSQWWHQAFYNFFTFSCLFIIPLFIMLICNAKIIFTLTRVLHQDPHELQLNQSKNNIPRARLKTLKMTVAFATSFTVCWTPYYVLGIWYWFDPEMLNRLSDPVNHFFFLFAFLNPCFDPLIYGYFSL
Test: Inhibition of gonadotropin-releasing hormone receptor-stimulated [3H]inositol phosphate hydrolysis
Assay type: functional
result_type: IC50 (nM)

Reference set (10 entries):
{"columns": ["compound", "IC50 (nM)"],
 "data": [
  ["Cc1cc(C)cc(-c2[nH]c3ccc(C(C)(C)C(=O)N4C5CCC4CC5)cc3c2[C@H](C)CNCCCc2ccc3cnccc3c2)c1", 4.6],
  ["Cc1cc(C)cc(-c2[nH]c3ccc(C(C)(C)C(=O)N4C5CCC4CC5)cc3c2[C@H](C)CNCCCc2cnc3nccnc3c2)c1", 10.9],
  ["Cc1cc(C)cc(-c2[nH]c3ccc(C(C)(C)C(=O)N4C5CCC4CC5)cc3c2[C@H](C)CNCCCc2cncc3ccccc23)c1", 7.5],
  ["Cc1cc(C)cc(-c2[nH]c3ccc(C(C)(C)C(=O)N4C5CCC4CC5)cc3c2[C@H](C)CNCCCc2ccc3ncccc3c2)c1", 17.8],
  ["Cc1cc(C)cc(-c2[nH]c3ccc(C(C)(C)C(=O)N4CC5CCC4CC5)cc3c2[C@H](C)CNCCc2c[nH]c3ncnc-3c2)c1", 4.5],
  ["Cc1cc(C)cc(-c2[nH]c3ccc(C(C)(C)C(=O)N4CC5CCC4CC5)cc3c2[C@H](C)CNCCc2ccc3[nH]c(CO)nc3c2)c1", 5],
  ["Cc1cc(C)cc(-c2[nH]c3ccc(C(C)(C)C(=O)N4C5CCC4CC5)cc3c2[C@H](C)CNCCCCc2ccnc3nc(C)ccc23)c1", 8.4],
  ["Cc1cc(C)cc(-c2[nH]c3ccc(C(C)(C)C(=O)N4C5CCC4CC5)cc3c2[C@H](C)CNCCCCc2ccc3cnccc3c2)c1", 5.8],
  ["Cc1cc(C)cc(-c2[nH]c3ccc(C(C)(C)C(=O)N4C5CCC4CC5)cc3c2[C@H](C)CNCCCc2cccc3ncccc23)c1", 131],
  ["Cc1cc(C)cc(-c2[nH]c3ccc(C(C)(C)C(=O)N4CC5CCC4CC5)cc3c2[C@H](C)CNCCc2ccc3[nH]ncc3c2)c1", 1.5]
]}

a: Cc1cc(C)cc(-c2[nH]c3ccc(C(C)(C)C(=O)N4C5CCC4CC5)cc3c2[C@H](C)CNCCc2ccc3ncoc3c2)c1
b: Cc1cc(C)cc(-c2[nH]c3ccc(C(C)(C)C(=O)N4CC5CCC4CC5)cc3c2[C@H](C)CNCCc2ccc3[nH]c(C(F)(F)F)nc3c2)c1
c: Cc1cc(C)cc(-c2[nH]c3ccc(C(C)(C)C(=O)N4C5CCC4CC5)cc3c2[C@H](C)CNCCCCc2cnc3nccnc3c2)c1
d: Cc1cc(C)cc(-c2[nH]c3ccc(C(C)(C)C(=O)N4C5CCC4CC5)cc3c2[C@H](C)CNCCCCc2cnc3nc[nH]c3c2)c1
e: Cc1cc(C)cc(-c2[nH]c3ccc(C(C)(C)C(=O)N4C5CCC4CC5)cc3c2[C@H](C)CNCCc2cccc3cnccc23)c1
Input line: Sort low-to-high on IC50, please. Returns: the labels listed in the requested order.
Output line: a, d, c, e, b
